For each entry below, report its IC50, inhibition of VEGF stimulated HMVEC migration value.
Target: GRP78 on the surface of human cells (EAHY, HMVEC, HT1080) (human, UniProt P11021 19-654)
Sequence (P11021 19-654): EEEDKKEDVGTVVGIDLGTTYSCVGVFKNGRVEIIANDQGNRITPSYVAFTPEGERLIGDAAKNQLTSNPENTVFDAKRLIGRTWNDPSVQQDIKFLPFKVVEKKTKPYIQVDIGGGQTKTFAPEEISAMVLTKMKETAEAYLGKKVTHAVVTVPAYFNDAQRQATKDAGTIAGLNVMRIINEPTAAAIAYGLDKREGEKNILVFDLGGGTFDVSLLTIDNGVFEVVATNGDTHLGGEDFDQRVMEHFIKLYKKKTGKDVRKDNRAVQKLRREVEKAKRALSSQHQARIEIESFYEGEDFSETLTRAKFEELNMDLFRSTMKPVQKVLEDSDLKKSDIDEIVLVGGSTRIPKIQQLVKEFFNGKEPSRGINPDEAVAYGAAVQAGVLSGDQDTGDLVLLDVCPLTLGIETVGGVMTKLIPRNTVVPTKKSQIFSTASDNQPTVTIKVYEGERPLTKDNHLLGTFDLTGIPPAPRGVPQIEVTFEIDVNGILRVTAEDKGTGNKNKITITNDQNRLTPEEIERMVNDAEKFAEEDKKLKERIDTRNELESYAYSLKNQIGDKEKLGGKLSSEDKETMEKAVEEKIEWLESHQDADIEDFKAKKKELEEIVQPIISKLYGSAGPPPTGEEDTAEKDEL
Test: cell-based or functional assay
Ends that are not written are not given here. * marks the point of attachment. Biotin = O=C1N[C@H]2[C@H](CS[C@H]2CCCCC(=O)*)N1
Please give a number only; it is taken to be in nM.

Reported IC50, inhibition of VEGF stimulated HMVEC migration for Ac-RKLYDY-NH2 [Ac-RKLYDY-NH2] : what is it?
0.12

Reported IC50, inhibition of VEGF stimulated HMVEC migration for Biotin-PRKLYDY [N-terminally biotinylated PRKLYDY peptide] : what is it?
0.23

From: patent US20050053993A1
